Hey, just so you know, these numbers are from paper PMC9482650.

Recorded measurements of pKd, one per entry
target.entity: ARHGEF12, Q9NZN5-2
Sequence (Q9NZN5 other isoform, or with tags, fused parts or gaps): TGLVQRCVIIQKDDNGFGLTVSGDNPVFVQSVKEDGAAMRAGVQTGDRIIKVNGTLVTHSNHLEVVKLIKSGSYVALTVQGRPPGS
test.name: holdup assay
Set-up: key: below the threshold = too weak to quantify, mostly under pKd 3.1 to 4
condition.description: plain residues with an end cap or a label only (N-terminal biotin on a linker: ttds)

# binder, pKd
data = [
    ("QRPYRRESEI [KCNJ12, Q14500]", 3.65),
    ("SGGKRKETLV [NET1, Q7Z628]", 3.74),
    ("PSRDRKETSI [RALBP1, Q15311]", 4.06),
    ("NPDALPETLV [ARHGAP6, O43182]", 3.85),
    ("SHSSKGETAV [FZD7, O75084]", 3.97),
    ("PPRQRSETQV [HPV82-E6, Q9IR59]", 3.72),
]
